All values here come from PubChem BioAssay AID179.

# Test system: CEM cells HIV-1 protection, formazan growth assay
# assayRemarks: NCI AIDS Antiviral Assay;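 active means compounds giving half or more protection of infected cells from virus-caused growth loss, again on retest; inactive means the rest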
Just give me one of these, please: YES (active), NO (inactive)

Assay result, entry CC(C)c1cccc(C(C)C)c1NC(=O)C(=O)C1CCC2=C(Sc3ccccc3N2)C1=O (stereo unspecified) — outcome?
NO

Assay result, entry C=CCN1C(=O)C/C(=C2/CCC(=O)N2CC=C)C1=O — outcome?
NO

Assay result, entry CC1(C)CC(=O)/C(=C/C2CCNC2=S)C(=O)N1 (stereo unspecified) — outcome?
YES

Assay result, entry Cc1ccc(-c2[nH]c(=O)n(C3OC(CO)C(O)C(O)C3O)c(=O)c2C#N)cc1 (stereo unspecified) — outcome?
NO

Assay result, entry COc1cccc(C(NC2=NCCC=N2)c2cc3c(cc2O)OCO3)c1O (stereo unspecified) — outcome?
NO

Assay result, entry COc1c(N2CCCCC2)c2c(=O)c3ccccc3oc2c2cc(C)oc12 — outcome?
NO

Assay result, entry CCOC(=O)/C(O)=C/c1nc2ccccc2nc1C — outcome?
NO

Assay result, entry Fc1ccc(NC2=NCCN=C(Nc3ccc(F)cc3)SS2)cc1 — outcome?
NO

Assay result, entry N#Cc1ccccc1SSc1ccccc1C#N — outcome?
NO

Assay result, entry CCOC(=O)C[N+]1(C)C2CCC1CC(O)C2 (stereo unspecified) — outcome?
NO

Assay result, entry CC(=O)N1c2ccccc2C(C)C1c1[nH]c2ccccc2c1C (stereo unspecified) — outcome?
NO
